Origin of values: ChEMBL document CHEMBL2029292

Please respond with reported pKi for every item in the list.
# log scale: pKi equals minus log10 of the concentration in mol/L

Req: For the record Cc1ccsc1/C=C/c1nc(N)nc(-c2ccccc2O)n1 , what value of pKi is listed for Adenosine receptor A2a (Homo sapiens)?
Resp: 8.46

Req: For the record Nc1cccc(CC2SC(=O)NC2=O)c1 (stereo unspecified) , what value of pKi is listed for Adenosine receptor A2a (Homo sapiens)?
Resp: 5.15

Req: For the record COC1CCN(c2cccc(-c3nc(N)nc(-c4ccccc4O)n3)c2)CC1 , what value of pKi is listed for Adenosine receptor A2a (Homo sapiens)?
Resp: 8.80

Req: For the record CC(C)c1nc(N)nc(-c2ccccc2O)n1 , what value of pKi is listed for Adenosine receptor A2a (Homo sapiens)?
Resp: 7.91

Req: For the record CC1CC(c2ccccc2)n2nc(N3C(=O)C4CC=CCC4C3=O)nc2N1 (stereo unspecified) , what value of pKi is listed for Adenosine receptor A2a (Homo sapiens)?
Resp: 5.70

Req: For the record COc1ccc(N2CC(C(=O)NC(Cc3ccccc3)C(=O)O)CC2=O)cc1 (stereo unspecified) , what value of pKi is listed for Adenosine receptor A2a (Homo sapiens)?
Resp: 5.53
